# Protocol Details: yeast display, Sf9 membrane polyspecificity reagent, FACS + sequencing; frameworks hold sequencing errors
Property Label: polyreactivity (PSR sort gate)

Solved cases (5 shown):
QVQLQESGGGLVQVGGSQSLICAASGNIFYNYAMGWYRHAQGKEREFDATINHGTSINYADSVKGRFTISRDNAKNTVYLQMNSLKPEDTAVYYCAADLSRTDNLFYWGQGTQVTVSS; low polyreactivity
QVQLVESGGGLVQAGGSLRLSCAASGFTFSYYAMGWYRQAPGKERELVATITSGGSTYYADSVKGRFTISRDNAKNTVYLQMNSLKPEDTAVYYCNADWYWRVYWGQGTQVTVSS; high polyreactivity
QVQLVESGGGLVQAGGSLRLSCAASGITVNSYAMGWYRQAPGKERELVAAISGSGSSTYYADSVKGRFTISRDNAKNTVYLQMNSLKPEDTAVYYCAATGFSSWTYYTHEYWGQGTQVTVSS; low polyreactivity
QVQLVESGGGLVQAGGSLRLSCAASGFIFTKYAMGWYRQAPGKERELVAVITSRGTRTYYADSVKGRFTISRDNAKNTVYLQMNSLKPEDTAVYYCAADYQGPYDYWGQGTQVTVSS; high polyreactivity
QVQLVESGGGLVQAGGSLRLSCAASGSIFPRNAMGWSRQAPGKEMELVATITSGTSTNYADSVKGRFTISRDNAKNTVYLQMNSLKPEDTAVYYCAADHYYTGTTYNYWGQGTQVTVSS; low polyreactivity

[in] Data request, read-out polyreactivity (PSR sort gate), for `QVQLVESGGGLVQAAGSLRLSCAASGITLYWYAMGWSRQAPGKERELVATISRRGGTTYYADSVKGRFTISRDNAKNTVYLQMNSLKPEDTAVYYCAKAPDTQTSWSRQEGNYWGQGTQVTVSS`
[out] low polyreactivity

[in] For the sequence `QVQLVESGGGLVQAGGSLRLSCAAYGITFTPNAMGWYRQAPGKEREFVAAITYSGGSTYYADSVKGRFTISRDNAKNTVYLQMNSLKPEDTAVYYCAAVYYLLYYEAYYYWGQGTQVTVSS` , what polyreactivity (PSR sort gate) is on record?
[out] low polyreactivity

[in] What value of polyreactivity (PSR sort gate) has been reported for the following sequence? `QVQLVESGGGLVQAGGSLRLSCAASGSIFSYYSMGWYRQAPGKERELVAAITSGDGTNYADSVKGRFTISRDYAKNTVYLQMNSLKPEDTAVYYCAADAVDSYWREDYWGQGTQVTVSS`
[out] low polyreactivity

[in] For `QVQLVESGGGLVQAGGSRRLSCAASGFFFRTYSMGWYRQAPGTERELVAAISSSSGSTYYADSVKGRFTISRDNAKNTVYLQMNSLKPEDTAVYYCAAYSLSQKPRGYNYWGQGTQVTVSS` , what is its reported polyreactivity (PSR sort gate)?
[out] high polyreactivity

[in] I would be grateful if you could share the reported polyreactivity (PSR sort gate) for `QVQLVESGGGLVQAGGSLRLSCAASGFIFRFNALGWYRQAPGKERELVAAISGSGGITYYADSVKGRFTISRDNAKNTVYLQMNSLKPEDTAVYYCAAGTGKRSVRFDYWGQGTQVTVSS` .
[out] high polyreactivity

[in] Value lookup for polyreactivity (PSR sort gate); key = `QVQLVESGGGLVQAGGSLRLSCAASGRTFRAYGMGWYRQAPGKERELVAVISWRDGSTFYADSVKGRFTISRDNAKNTVYLQMNSLNPEDTAVYYCNTAYYPGNYSQYDYWGQGTQVTVSS`
[out] low polyreactivity

###

# Protocol Details: yeast display, Sf9 membrane polyspecificity reagent, FACS + sequencing; frameworks hold sequencing errors
Property Label: polyreactivity (PSR sort gate)

QVQLVESGGGIVQAGGSLRLSCAASGRHFYTNAMGWYRQAPGKERELVATISGSVGNTYYEDSVKGRFTISRDNAKNTVYLQMNSLKPEDTAVYYCAKAYYTPYGVYVLHYYWGQGTQVTVSS; high polyreactivity
QVQHVESGGGLVQAGGSLRLSCAASGFTFKRNAMGWYRPAPGKERELVAAITWSGGSTYYADSVKGRFTISRDNAKNTVYLQMNSLKPEDTEVYYCAALYRSRYYSGDYWGQGTQVTVSS; high polyreactivity
QVHLEESVGGLLQAGGSLRLSCVASGSTFGAYAMGWYRQAPGKERELVAAINTGDSTNYADSVKGRFTISRDNAKNTVYFQMNSLKPVDTAVYYCAAVSKHSGDELDYWGQGTQVTVSS; high polyreactivity
QVQLVESGGGLVQAGGSLRLSCAASGSTFASYAMGWYRQAPGKEREFVAAISRSGGSTYYADSVKGRFTISRDNAKNTVYLQMNSLKPEDTAVYYCAARSPSADEYYYWGQGTQVTVSS; low polyreactivity

Next sequence, polyreactivity (PSR sort gate) to be filled in.
[in] For the sequence shown here, `QVQLEESGGRLVQAGGSLRLSCAASGRILRRYTMGWYRQAPGKETELVAAISSGGNTYYADSVKGRFTISRDNAKNTVYLQMNSLKPEDTAVDYCAARVRRYWEYDYWGQGTQVTVSS` , give the reported polyreactivity (PSR sort gate).
[out] low polyreactivity

###

# Protocol Details: yeast display, Sf9 membrane polyspecificity reagent, FACS + sequencing; frameworks hold sequencing errors
Property Label: polyreactivity (PSR sort gate)

Look over these answered cases.
QVQLVESGGGLVQPRGSLRLSCAASGGTFKFYAMGWYRQAPGKDRELVAAITSGGSTNYADSVKGRFTISRDNAKNTVYLLMNSLKPEDTALYYCNADFYQRYGVFSSRRYFYWGQGTQVTVSS; low polyreactivity
QVQLVESGGGLVQAGGSLRLSCAASGIIFDVYAMGWYRPAPGKERELVAAISYGGGTTYYADSVKGRFTISRDNAKNTVYLQMNSLKPEDTAVYYCAADSYRSIGDDYWGQGTQVTVSS; high polyreactivity
QVQLVESGGGLVQAGGSLRLSCAASGTTFYPNAMGWYRQAPGKERELVAAISWSGGRTYYADSVKGRFTISRDNAKNTVYLQMNSLKPEDTAVYYCNRYHRTSWRAKYDYWGQGTQVTVSS; high polyreactivity
QVQLVESGGGLVQAGGSLRLSCAASGSIFVRYAMGWYRQAPGKERELVAAFTSSAGSTYYADSVKGRFTISRDNAKNTVYLQMNSLKPEDTAVYYCAAVRYYPSKFYYWGQGTQVTVSS; high polyreactivity
QVQLVESGGGLVQAGGRLRLSCAASGLIFDDYAMGWYRQAPGKERALVAAIDWGGGSTYYADSVKGRFTISRDNAKNTVYLQMNSLTPEHTAVYYCAADSYFSYRYNYWGQGTQVTVSS; low polyreactivity
QVQLVESGGGLVQAGGSLRLSCAASGSTFQFYAMGWYRQAPGKERELVAAISVSGDRTYYADSVKGRFTISRDNAKNTVYLQMNSLKPEDTAVYYCAARYGPFKRRFDYWGQGTQVTVSS; high polyreactivity

[in] Sample `QVQLVESGGGLVQAGGSLRLSCAASGRSFCSYAMGWYRHAPGKERELVAAITSGGSTNYADSVKGRFTISRDNAKNTVYLQMNSLKPEVTAVYYCAAVEYLRESDYWGQGTQVTVSS` — what was its polyreactivity (PSR sort gate)?
[out] low polyreactivity

[in] Reported polyreactivity (PSR sort gate) for `QVQLVESGGGLVQAGGSLRLSCAASGFTFKINGMGWYRQATGKEREFVATIRTSTGRTNYADSVKGRFTISRDNAKNTVYLQMNSLKPEDTAVYYCAATFKSGMDYWGQGTQVTVSS` : what is it?
[out] high polyreactivity

[in] # get_value(readout='polyreactivity (PSR sort gate)', item= `QVQLVESGGGLVQAGGSLRLSCAASGFTFYTNAMGWYRQAPGKERDMVAVITSGGNTYYADSVKGRFTISRDNAKNTVYLQMNSLKPEDTAVYYFAAIPKRPIRFDYWGQGTQVTVSS` )
[out] high polyreactivity

[in] Any idea what polyreactivity (PSR sort gate) was measured for `QVQLVESLGGLVQAGGSLRLSSAASGSIFRRYAMGWYREAPGKERELVAAITSGDTTKYADSLKGRFTISRDNAKNNVYLHMNSLKPEDTAVYYCNKKGWPRFVHGFLRRDDYWGQGTQVTLSS` ?
[out] low polyreactivity

[in] What value of measured polyreactivity (PSR sort gate) is listed for `QVQLVESGGGLVQAGGSLRLSCAASGFTFRWNAMGWYRQAPGKERELVAAITNDDSTYYADSVKGRFTISRDNAKNTVYLQMNSLKPEDTAVYYCNADLTQYDAGFDYWGQGTQVTVSS` ?
[out] low polyreactivity

###

# Protocol Details: yeast display, Sf9 membrane polyspecificity reagent, FACS + sequencing; frameworks hold sequencing errors
Property Label: polyreactivity (PSR sort gate)

Worked cases, answers included:
QVQLVESGGGLVQAGGSLRLSCAASGLIFVSYAMGWYRQEPGKERELVASITDSDSSTYYADSVKGRFTISRDNAKNTVYLQMNSLKPEDTAVYSCATGGRTEIWYPTLDYWGQGTQVTVSS; low polyreactivity
QVQLVESGGGLVQAGGSLRLSCAASGIIFFPYAMVWYRQAPGKEREFVAAITSRGGSTYYADSVKGRFTISRDNAKNTVYLQMNSLNPEDTAVYYFAADGWLWSFTGDGWWFDYWGQGTQVTVSS; low polyreactivity
QVQLVESGGGLVQAGGSLRLSCAASGNIFDRNAMGWYRHAPGKESELVAAISRSGGRTYYADSVKGRFTISRDNAKNTVYLQMNSLKPEDTAVYYCNRRYRNYSSAKYDYWGQGTQVTVSS; high polyreactivity
QVQLVESGGGLVQAGGSLRLSCAASGFIFPWYAMGWYRQAPGKERELVAAISWSGGSTYYADSVKWRFTISRDNAKNTVYLQMNSLKPEDTAVYYCNDLYGRPGYDYWGQGTQVTVSS; low polyreactivity
QVQLVESGGGLVQAGGSLRLICAASGFTFFAYAMGWYRQAPGKERELVAGISRSGGRTYYADSVKGRFTISRDNAKNTVYLQMNSLKPEDTAVYYCAAGIPVTSRFYGMDWGQGTQVTVSS; high polyreactivity
QVQLVESGGGLVQAGGSLRLSCAASGNTFYAYAMGWYRQAPGKERELVASITLSGDSTYYADSVKGRFTISRDNAKNSVYLQMSSLIPEDTAVYYCAGVYTYPLGYYHYTYDYWGQGTQVTVSS; low polyreactivity
QVQLEESGGGLVQAGGSLRLTCAASGSILVYNAMGWYRQAPGKERELVAGISSSGTRTYYADSVKGRFTISRDNAKITFYLQMNSLKPEDTAVYYCNALPVRGHQEYDSWGQGTQVNVSS; high polyreactivity
QVQLVESGGGLVQAGGSLRLSCAASGRIFVKNAMGWYIQAPGKERELVAAISASGGSTYYADSVKGRFTISRDYSKNTVYLQMNSLKPEYTAVYYCARVLRRRYLSEFDYWGQGTQVTVSS; high polyreactivity

In the following, a different sequence is considered.
[in] polyreactivity (PSR sort gate) lookup needed for `QVQLVESGGGLVQAGGSLRLSCAASGRIFLTNAMGWYRQAPGKERELVADITSGGATYYADSVKGRFTISRDNAKNSVYLQMNSLKPVDTAVYYCNADTDRYWPYEYDYWGQGSQVTVSS` , thanks.
[out] low polyreactivity
